System: IRE1-XBP1s (XBP1-RLuc splicing reporter in HEK293 T-REx cells)
method.summary: IRE1-XBP1s activation assay (XBP1-RLuc splicing reporter, HEK293 T-REx cells, luminescence relative to thapsigargin)
Format: cell-based
particulars: 18 h, compound 10 μM, HEK293 T-REx XBP1-RLuc reporter cells, relative to thapsigargin (Tg) 500 nM, read-out: Activity (IRE1-XBP1s activation, luminescence as % signal relative to thapsigargin, % Tg)
property: activation at 10 µM

compound: Cc1ccc(OCCN(C)C(=O)Cn2cc(NC(=O)CCNc3ncc(Cl)cc3F)cn2)cc1 [Compound 140]
activation at 10 µM: > 50%

compound: Cc1ccc(OCC(C)N(C)C(=O)Cn2cc(NC(=O)CCOc3ccccc3F)cn2)cc1 (stereo not shown) [Compound 53]
activation at 10 µM: > 50%

compound: Cc1ccc(OCCN(C)C(=O)Cn2cc(NC(=O)/C=C/Oc3c(Cl)ccnc3C)cn2)cc1 [Compound 115]
activation at 10 µM: < 30%

Look up activation at 10 µM for the entries below, preserving their order.
1. Cc1ccc(OCCN(C)C(=O)Cn2cc(NC(=O)CCNc3ccncc3F)cn2)cc1 [Compound 192]
2. CN(CCOc1cc(C(F)F)on1)C(=O)Cn1cc(NC(=O)CCNc2nccc(F)n2)cn1 [Compound 271]
3. Cc1ccc(OCCN(C)C(=O)Cn2cc(NC(=O)CCNc3ccncc3)cn2)cc1 [Compound 155]
4. Cc1ccc(OCCN(C)C(=O)Cn2cc(NC(=O)CNC(=O)c3ccncc3)cn2)cc1 [Compound 259]

Output line:
["> 50%", "< 30%", "< 30%", "< 30%"]

---

Hi there, I'd appreciate the recorded activation at 10 µM for every entry that follows.
System: IRE1-XBP1s (XBP1-RLuc splicing reporter in HEK293 T-REx cells)
method.summary: IRE1-XBP1s activation assay (XBP1-RLuc splicing reporter, HEK293 T-REx cells, luminescence relative to thapsigargin)
Format: cell-based
particulars: 18 h, compound 10 μM, HEK293 T-REx XBP1-RLuc reporter cells, relative to thapsigargin (Tg) 500 nM, read-out: Activity (IRE1-XBP1s activation, luminescence as % signal relative to thapsigargin, % Tg)

compound: Cc1ccc(OCCN(C)C(=O)Cn2cc(NC(=O)C(CNc3ccc(F)nc3C)C3CCCCC3)cn2)cc1 (centres unmarked)
activation at 10 µM: 30 to 50%

Look up activation at 10 µM for the entries below, preserving their order.
1. Cc1ccc(OCCN(C)C(=O)Cn2cc(NC(=O)CCNc3ccc4c(c3)OC(F)(F)O4)cn2)cc1
2. Cc1ccc(OCCN(C)C(=O)Cn2cc(NC(=O)CCOc3c(F)cncc3F)cn2)cc1
3. Cc1ccc(OCCN(C)C(=O)Cn2cc(NC(=O)CCNc3cnc(Cl)cn3)cn2)cc1
4. Cc1ccc(OC[C@@H](C)N(C)C(=O)Cn2cc(NC(=O)CCNc3nccc(F)n3)cn2)cc1

Output line:
1. < 30%
2. > 50%
3. > 50%
4. 30 to 50%

---

Test system: IRE1-XBP1s (XBP1-RLuc splicing reporter in HEK293 T-REx cells)
method.summary: IRE1-XBP1s activation assay (XBP1-RLuc splicing reporter, HEK293 T-REx cells, luminescence relative to thapsigargin)
Type: cell-based
particulars: 18 h, compound 10 μM, HEK293 T-REx XBP1-RLuc reporter cells, relative to thapsigargin (Tg) 500 nM, read-out: Activity (IRE1-XBP1s activation, luminescence as % signal relative to thapsigargin, % Tg)
Hi there, I'd appreciate the recorded activation at 10 µM for every entry that follows.

Past entries and their recorded results:
smiles.code: C#CCCC1(CCC(=O)Nc2ncccc2OCCC(=O)Nc2cnn(CC(=O)N(C)CCOc3ccc(C)cc3)c2)N=N1
activation at 10 µM: < 30%
//
smiles.code: Cc1cc(F)ccc1OCCC(=O)Nc1cnn(CC(=O)N(C)CCOc2ccc(C(=O)O)cc2)c1
activation at 10 µM: < 30%
//
smiles.code: Cc1ccc(OCCN(C)C(=O)Cn2cc(NC(=O)CCNc3ccnc(F)c3)cn2)cc1
activation at 10 µM: 30 to 50%
//
smiles.code: Cc1ccc(OCCN(C)C(=O)Cn2cc(NC(=O)CCNc3cnc(C#N)c(F)c3)cn2)cc1
activation at 10 µM: 30 to 50%
//
smiles.code: COc1cnccc1NCCC(=O)Nc1cnn(CC(=O)N(C)CCOc2ccc(C)cc2)c1
activation at 10 µM: < 30%
//
smiles.code: COc1ccc(OCCN(C)C(=O)Cn2cc(NC(=O)CCNc3cc(C)ncc3C)cn2)cc1
activation at 10 µM: 30 to 50%
//
smiles.code: Cc1ccc(OCCN(C)C(=O)Cn2cc(NC(=O)CCOc3ccc(N)cn3)cn2)cc1
activation at 10 µM: > 50%
//
smiles.code: Cc1ccc(OCCN(C)C(=O)Cn2cc(NC(=O)CCOc3c(C)ccnc3N)cn2)cc1
activation at 10 µM: < 30%
//
smiles.code: Cc1ccc(OCCC(=O)Nc2cnn(CC(=O)N(C)CCOc3ccc(Cl)cc3)c2)c(F)c1
activation at 10 µM: < 30%
//
smiles.code: Cc1ccc(OCCN(C)C(=O)Cn2cc(NC(=O)CCOc3ccccc3OC(F)(F)F)cn2)cc1
activation at 10 µM: 30 to 50%

Look up activation at 10 µM for the entries below, preserving their order.
1. Cc1ccc(OCCN(C)C(=O)Cn2cc(NC(=O)CCNc3ncccc3F)cn2)cc1
2. CCc1nccnc1NCCC(=O)Nc1cnn(CC(=O)N(C)CCOc2ccc(C)cc2)c1
3. Cc1ccc(OCCN(C)C(=O)Cn2cc(NC(=O)CCNc3ncc(C)cn3)cn2)cc1
4. Cc1ccc(OCCN(C)C(=O)Cn2cc(NC(=O)CCOc3cccc(NC(=O)OC(C)(C)C)n3)cn2)cc1

Output line:
["30 to 50%", "30 to 50%", "< 30%", "> 50%"]

Look up activation at 10 µM for the entries below, preserving their order.
1. CCc1ccc(OCCN(C)C(=O)Cn2cc(NC(=O)CCOc3ccccc3F)cn2)cc1
2. Cc1ccc(OCCN(C)C(=O)Cn2cc(NC(=O)CCNc3ccc(C#N)cn3)cn2)cc1

Output line:
30 to 50%
< 30%

---

System: IRE1-XBP1s (XBP1-RLuc splicing reporter in HEK293 T-REx cells)
method.summary: IRE1-XBP1s activation assay (XBP1-RLuc splicing reporter, HEK293 T-REx cells, luminescence relative to thapsigargin)
Type: cell-based
particulars: 18 h, compound 10 μM, HEK293 T-REx XBP1-RLuc reporter cells, relative to thapsigargin (Tg) 500 nM, read-out: Activity (IRE1-XBP1s activation, luminescence as % signal relative to thapsigargin, % Tg)
Description: IRE1-XBP1s activation Assay: HEK293 T-REx cells stably expressing the XBP1-RLuc splicing reporter were treated with an IRE1-XBP1s activator provided herein (10 μM) in the presence or absence of the IRE1 active site inhibitor 4μ8C (32 μM) for 18 h. Luminescence was shown as the percentage signal relative to thapsigargin (Tg) (500 nM, 18 h).
property: activation at 10 µM

Past entries and their recorded results:
compound: Cc1ccc(OCCN(C)C(=O)Cn2cc(NC(=O)CC(C)(C)Nc3nccc(F)n3)cn2)cc1
activation at 10 µM: > 50%
--
compound: CN(CCOc1ccc(F)cc1)C(=O)Cn1cc(NC(=O)CCOc2ccccc2)cn1
activation at 10 µM: < 30%
--
compound: COC(=O)Nc1cccc(NCCC(=O)Nc2cnn(CC(=O)N(C)CCOc3ccc(C)cc3)c2)n1
activation at 10 µM: < 30%

Look up activation at 10 µM for the entries below, preserving their order.
1. Cc1ccc(OCCN(C)C(=O)Cn2cc(NC(=O)CCOc3ccc(Cl)cc3F)cn2)cc1
2. Cc1cnc(OCCN(C)C(=O)Cn2cc(NC(=O)CCNc3ccc(F)nc3C)cn2)cn1
3. Cc1ccc(OCCN(C)C(=O)Cn2cc(NC(=O)C(CNc3ncc(F)cn3)CC(C)C)cn2)cc1 (centres unmarked)
4. Cc1ccc(OCCN(C)C(=O)Cn2cc(NC(=O)CCNc3c(Cl)cncc3Cl)cn2)cc1
5. Cc1ccc(OCCN(C)C(=O)Cn2cc(NC(=O)CCNc3nccnc3Cl)cn2)cc1

Output line:
1: < 30%; 2: < 30%; 3: < 30%; 4: > 50%; 5: > 50%

---

System: IRE1-XBP1s (XBP1-RLuc splicing reporter in HEK293 T-REx cells)
method.summary: IRE1-XBP1s activation assay (XBP1-RLuc splicing reporter, HEK293 T-REx cells, luminescence relative to thapsigargin)
Assay type: cell-based
particulars: 18 h, compound 10 μM, HEK293 T-REx XBP1-RLuc reporter cells, relative to thapsigargin (Tg) 500 nM, read-out: Activity (IRE1-XBP1s activation, luminescence as % signal relative to thapsigargin, % Tg)
Hi there, I'd appreciate the recorded activation at 10 µM for every entry that follows.

Past entries and their recorded results:
compound: Cc1ccc(OCCN(C)C(=O)Cn2cc(NC(=O)CCNc3cncc(C(F)(F)F)n3)cn2)cc1 [Compound 185]
measurement.target: IRE1-XBP1s (XBP1-RLuc splicing reporter in HEK293 T-REx cells)
result: < 30%

compound: Cc1ccc(OCCN(C)C(=O)Cn2cc(NC(=O)COCc3cccnc3N)cn2)cc1 [Compound 84]
measurement.target: IRE1-XBP1s (XBP1-RLuc splicing reporter in HEK293 T-REx cells)
result: < 30%

compound: Cc1cnc(OCCN(C)C(=O)Cn2cc(NC(=O)CCNc3ccc(F)nc3C)cn2)nc1 [Compound 244]
measurement.target: IRE1-XBP1s (XBP1-RLuc splicing reporter in HEK293 T-REx cells)
result: < 30%

compound: Cc1ccc(OCCC(=O)Nc2cnn(CC(=O)N(C)CCOc3ccc(C4(F)CC4)cc3)c2)c(F)c1 [Compound 89]
measurement.target: IRE1-XBP1s (XBP1-RLuc splicing reporter in HEK293 T-REx cells)
result: < 30%

compound: Cc1ccc(OCCN(C)C(=O)Cn2cc(NC(=O)[C@@H](C)CNc3ccc(F)nc3C)cn2)cc1 [Compound 220]
measurement.target: IRE1-XBP1s (XBP1-RLuc splicing reporter in HEK293 T-REx cells)
result: 30 to 50%

Look up activation at 10 µM for the entries below, preserving their order.
1. Cc1ccc(OCCN(C)C(=O)Cn2cc(NC(=O)CCNc3cc4c(cn3)OCO4)cn2)cc1 [Compound 291]
2. Cc1ccc(OCCN(C)C(=O)Cn2cc(NC(=O)CCOc3c(F)cccc3F)cn2)cc1 [Compound 56]
3. Cc1ccc(OCCN(C)C(=O)Cn2cc(NC(=O)CCOc3ncccc3N)cn2)cc1 [Compound 114]

Output line:
1: 30 to 50%; 2: > 50%; 3: > 50%
